Entry source: patent US20210188989A1

Assignment: determine reported koff for the given binders.
target: T1, recombinant human 4-1BB extracellular domain protein (human, UniProt Q07011 24-186); assay: Octet, binding off-rate kdis; the sheet names no species of 41BB, paragraph 86: 'binding to human and recombinant 4-1BB by octet assay'
T1 construct: extracellular domain; Analyte in the Octet assay; also called CD137; TNFRSF9
Number only, in s⁻¹; omit the unit.

Q) Read off the recorded koff for 472E4 VHv1VLv1 (antibody, human IgG1, kappa, V domains shown, one of the humanized antibodies; also called 472E4 humanized) VH: EVQLVESGGGLVQPGGSLRLSCAASGFSLNNNAISWVRQAPGKGLEWVAIIQNTGTTDYARSAKGRFTISRDNSKNTLYLQMNSLRAEDTAVYYCARGYGFESELVIWGQGTLVTVSS VL: DIQMTQSPSSLSASVGDRVTITCQSSQSVYNNNALAWYQQKPGKVPKLLIYLASTLASGVPSRFSGSGSGTDFTLTISSLQPEDVATYYCLGVYNDDVDNGFGGGTKVEIKR
A) 0.00265

Q) Supply recorded koff for 420H6 VHv1VLv1 (antibody, human IgG1, kappa, V domains shown, one of the humanized antibodies; also called 420H6 humanized) VH: EVQLLESGGGLVQPGGSLRLSCAASGIDFSSSYYMCWVRQAPGKGLEWIACIYTGGSGTPHYASSAKGRFTISRDNSKNTLYLQMNSLRAEDTAVYYCAREGSLWGQGTLVTVSS VL: DIQMTQSPSTLSASVGDRVTITCQASQSVYSNWLSWYQQKPGKAPKLLIYSASTLASGVPSRFSGSGSGTEFTLTISSLQPDDFATYYCAGGYNTVIDTFAFGGGTKVEIKR here.
A) 0.00128
